# STUDY TARGET: T1, human CTLA-4 (human, UniProt P16410 36-223)
# T1 construct: whole, on cells; CHO cells stably expressing huCTLA4; also called huCTLA4
# T1 sequence (P16410 36-223): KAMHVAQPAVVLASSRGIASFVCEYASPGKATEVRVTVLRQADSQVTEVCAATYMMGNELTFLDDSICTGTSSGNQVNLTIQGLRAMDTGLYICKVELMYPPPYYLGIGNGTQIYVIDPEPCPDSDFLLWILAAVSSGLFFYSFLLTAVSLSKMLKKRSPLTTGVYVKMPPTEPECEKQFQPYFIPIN
# ASSAY TEXT: flow cytometry MFI relative to WT CD80 IgV-Fc, CHO/huCTLA-4 cells, 33.3 nM
ENDPOINT NAME: Fold change to WT CD80 (fold)
Please respond with the number in fold and leave the unit unwritten.

Below: 8 binders and their reported Fold change to WT CD80.
Memo: variant CD80 IgV-Fc (inert) H18Y/E35D/M47V/V68L/A71G/D90G (Fc fusion, not shown: inert human IgG1 Fc) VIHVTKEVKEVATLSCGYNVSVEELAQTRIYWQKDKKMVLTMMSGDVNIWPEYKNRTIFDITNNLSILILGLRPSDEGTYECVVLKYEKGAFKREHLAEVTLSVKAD , reported Fold change to WT CD80: 11.9

Value of Fold change to WT CD80 reported for the binder variant CD80 IgV-Fc (inert) H18V/E35D/M47V/V68M/A71G/D90G (Fc fusion, not shown: inert human IgG1 Fc) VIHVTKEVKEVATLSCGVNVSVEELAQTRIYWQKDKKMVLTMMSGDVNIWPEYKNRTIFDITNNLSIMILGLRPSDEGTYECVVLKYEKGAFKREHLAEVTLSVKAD is 12.1

In plain terms, variant CD80 IgV-Fc (inert) H18F/A26N/E35D/M47V/V68M/A71G/D90K (Fc fusion, not shown: inert human IgG1 Fc) VIHVTKEVKEVATLSCGFNVSVEELNQTRIYWQKDKKMVLTMMSGDVNIWPEYKNRTIFDITNNLSIMILGLRPSDEGTYECVVLKYEKKAFKREHLAEVTLSVKAD has a documented Fold change to WT CD80 of 11

# Fold change to WT CD80 (binder: variant CD80 IgV-Fc (inert) H18V/A26G/E35D/M47V/V68M/A71G/D90G (Fc fusion, not shown: inert human IgG1 Fc) VIHVTKEVKEVATLSCGVNVSVEELGQTRIYWQKDKKMVLTMMSGDVNIWPEYKNRTIFDITNNLSIMILGLRPSDEGTYECVVLKYEKGAFKREHLAEVTLSVKAD ) is 18.4

Consider variant CD80 IgV-Fc (inert) H18V/A26K/E35D/M47L/V68M/A71G (Fc fusion, not shown: inert human IgG1 Fc) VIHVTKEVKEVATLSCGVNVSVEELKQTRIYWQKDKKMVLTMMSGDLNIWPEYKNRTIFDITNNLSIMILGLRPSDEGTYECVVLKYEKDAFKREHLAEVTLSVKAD . Its measured Fold change to WT CD80 is 16.6

Briefly, Fold change to WT CD80 measured for variant CD80 IgV-Fc (inert) H18V/A26Q/E35D/M47V/V68L/A71G/D90G (Fc fusion, not shown: inert human IgG1 Fc) VIHVTKEVKEVATLSCGVNVSVEELQQTRIYWQKDKKMVLTMMSGDVNIWPEYKNRTIFDITNNLSILILGLRPSDEGTYECVVLKYEKGAFKREHLAEVTLSVKAD : 12.8

According to the records, this binder variant CD80 IgV-Fc (inert) H18F/A26D/E35D/D46E/M47T/V68M/A71G/D90G (Fc fusion, not shown: inert human IgG1 Fc) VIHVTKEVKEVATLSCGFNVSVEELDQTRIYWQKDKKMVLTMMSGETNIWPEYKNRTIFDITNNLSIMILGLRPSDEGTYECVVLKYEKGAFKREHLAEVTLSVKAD displays Fold change to WT CD80 of 12.4

binder variant CD80 IgV-Fc (inert) H18Y/A26P/E35D/M47Y/V68I/A71G/D90G (Fc fusion, not shown: inert human IgG1 Fc) VIHVTKEVKEVATLSCGYNVSVEELPQTRIYWQKDKKMVLTMMSGDYNIWPEYKNRTIFDITNNLSIIILGLRPSDEGTYECVVLKYEKGAFKREHLAEVTLSVKAD , Fold change to WT CD80 observed: 6

Further cases:
Measured Fold change to WT CD80, variant CD80 IgV-Fc (inert) H18C/A26P/E35D/M47L/V68M/A71G (Fc fusion, not shown: inert human IgG1 Fc) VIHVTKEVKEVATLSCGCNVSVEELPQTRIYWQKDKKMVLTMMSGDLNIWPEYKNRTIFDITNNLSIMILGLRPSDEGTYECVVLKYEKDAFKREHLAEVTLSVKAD : 16.9

Hello, the source for this data is patent US20210130436A1, in case you need it.
